Biological target: rat liver FBPase (Rattus norvegicus)
Sequence (P19112 2-363 limits assumed): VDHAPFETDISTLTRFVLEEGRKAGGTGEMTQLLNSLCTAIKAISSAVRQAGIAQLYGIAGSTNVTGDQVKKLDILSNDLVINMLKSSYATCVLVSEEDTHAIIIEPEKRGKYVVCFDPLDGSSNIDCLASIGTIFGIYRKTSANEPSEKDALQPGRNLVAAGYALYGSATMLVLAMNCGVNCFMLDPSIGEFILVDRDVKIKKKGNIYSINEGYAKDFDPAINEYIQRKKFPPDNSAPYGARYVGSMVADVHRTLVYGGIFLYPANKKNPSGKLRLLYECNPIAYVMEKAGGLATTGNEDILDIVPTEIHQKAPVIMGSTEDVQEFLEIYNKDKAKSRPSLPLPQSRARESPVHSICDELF
Test: Inhibition of Rat Liver FBPase
QUANTITY KIND: IC50

Please look up its IC50: CC(C)Cc1[se]c(N)nc1-c1ccc(P(=O)(O)O)o1
150 nM
